Molecular target: K-Ras G12C (Homo sapiens, UniProt P01116, G12C)
Assay: Western blot assay for in cell alkylation of K-Ras G12C (HCC1171 cells)
Conditions: 18 hours at 37° C., 7 point dose response
Sequence (P01116 1-188 isoform P01116-2 G12C): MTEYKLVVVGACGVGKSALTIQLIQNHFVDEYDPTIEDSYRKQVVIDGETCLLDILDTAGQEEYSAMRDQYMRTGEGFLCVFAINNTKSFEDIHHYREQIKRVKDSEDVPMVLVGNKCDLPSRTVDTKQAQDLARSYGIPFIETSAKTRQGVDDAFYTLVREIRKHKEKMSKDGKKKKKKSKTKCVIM
pEC50: −log10 of the molar value.
# if value of pEC50 reaches 6, tag fulfilled; if it stays below, tag not fulfilled

C=CC(=O)N1CCN(c2nc(OC[C@@H]3CCCN3C)nc3c2CC[C@H](c2cc(O)cc4ccccc24)C3)C[C@@H]1CC#N (single isomer, unassigned) [Example 58b] | not fulfilled

hey, is pEC50 for this one >= 6? CNC/C=C/C(=O)N1CCN(c2ncnc3c2C[C@@H](C)[C@H](c2c(C)ccc4[nH]ncc24)C3)CC1 (single isomer, unassigned) [Example 19a]
not fulfilled

hey, is pEC50 for this one >= 6? C=CC(=O)N1CCN(c2ncnc3c2CC[C@@H](c2nc(N)cc4ccccc24)C3)CC1 (single isomer, unassigned)
not fulfilled

hey, is pEC50 for this one >= 6? CN1CCC[C@H]1COc1nc2c(c(N3CCN(C(=O)/C=C/CNC45CC(C4)C5)[C@@H](CC#N)C3)n1)CCC(c1cccc3ccccc13)C2 (some centres unmarked) [Example 48a]
fulfilled

* * *

Biological target: K-Ras G12C (Homo sapiens, UniProt P01116, G12C)
Experiment: K-Ras G12C, SOS1, Raf RBD HTRF assay for inhibition of GTP exchange
Settings: 18 hours preincubation with K-Ras G12C at room temperature; SOS1-mediated GTP exchange
Sequence (P01116 2-188 isoform P01116-2 G12C): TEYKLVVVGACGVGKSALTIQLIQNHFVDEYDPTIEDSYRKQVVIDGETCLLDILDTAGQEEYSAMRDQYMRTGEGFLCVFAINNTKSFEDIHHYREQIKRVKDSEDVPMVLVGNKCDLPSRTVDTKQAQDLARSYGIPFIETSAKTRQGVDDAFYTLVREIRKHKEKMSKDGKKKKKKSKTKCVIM
Let's look at some molecules and their measured pIC50.
Lab note: report pIC50 as minus log10 of the concentration in molar units, number only.

C=C(F)C(=O)N1CCN(c2nc(OC[C@@H]3C[C@@H](F)CN3C)nc3c2C[C@@H](C)[C@H](c2c(F)c(N)cc(C)c2C(F)(F)F)C3)C[C@H]1CC#N (single isomer, unassigned) [Example 38c] | 7.82

Lab note: next molecule to report on.
Please report the measured pIC50 for C=CC(=O)N1CCN(c2nc(OC[C@@H]3C[C@@H](F)CN3C)nc3c2C[C@@H](C)[C@H](c2nc(NC)cc(C)c2C(F)(F)F)C3)[C@@H](C)C1 (single isomer, unassigned) [Example 5b]
7.35

* * *

Let's look at some compounds and their measured EC50.
Target: K-Ras G12C (Homo sapiens, UniProt P01116, G12C)
Experiment: Western blot assay for in cell alkylation of K-Ras G12C (HCC1171 cells)
Details: 18 hours at 37° C., 7 point dose response
The figure you give is taken to be in nM; do not add the unit.

C=CC(=O)N1CCN(c2nc(OC[C@@H]3C[C@@H](F)CN3C)nc3c2C[C@@H](C)[C@H](c2nc(N)cc(C)c2C2CC2)C3)[C@@H](C)C1 (single isomer, unassigned) [Example 24b] | 490
C#CC[C@@H]1CN(c2nc(OC[C@@H]3CCCN3C)nc3c2C[C@H](C)[C@@H](c2cccc4c2CCC4)C3)CCN1C(=O)C=C (single isomer, unassigned) [Example 40c] | 1000
COc1ccc(CN(Cc2ccc(OC)cc2)c2cc(C)c(I)c([C@@H]3Cc4nc(OC[C@@H]5CCCN5C)nc(N5CCN(C(=O)OC(C)(C)C)C[C@@H]5C)c4C[C@H]3C)c2F)cc1 (single isomer, unassigned) [Example 14a] | 1000
C=CC(=O)N1CCN(c2ncnc3c2CC[C@H](c2c(C)c(C)cc4[nH]cnc24)C3)CC1 (single isomer, unassigned) [Example 10b] | 1000

Report EC50 under test system K-Ras G12C (Homo sapiens, UniProt P01116, G12C) for C=C(F)C(=O)N1CCN(c2nc(OC[C@@H]3CCCN3C)nc3c2CC[C@@H](c2cc(O)cc4ccccc24)C3)C[C@H]1CC#N (single isomer, unassigned) [Example 61d] .
11

* * *

Target: K-Ras G12C (Homo sapiens, UniProt P01116, G12C)
Assay: K-Ras G12C, SOS1, Raf RBD HTRF assay for inhibition of GTP exchange
Conditions: 18 hours preincubation with K-Ras G12C at room temperature; SOS1-mediated GTP exchange
pIC50: −log10 of the molar value.
Recorded pIC50 split into classes low: < 6; medium: ≥ 6 and < 7; high: ≥ 7

CN1CCC[C@H]1COc1nc2c(c(N3CCN(C(=O)/C=C/CF)[C@H](CC#N)C3)n1)CC[C@H](c1cc(O)cc3ccccc13)C2 (single isomer, unassigned) [Example 62b] | medium

Just checking, what class would you give C=C(F)C(=O)N1CCN(c2nc(OC[C@@H]3CCCN3C)nc3c2CC[C@@H](c2cc(O)cc4ccccc24)C3)C[C@H]1CC#N (single isomer, unassigned) [Example 61d] here?
high

Just checking, what class would you give C=CC(=O)N1CCN(c2nc(OC[C@@H]3CCCN3C)nc3c2C[C@H](C)[C@@H](c2cccc4c2CCC4)C3)C[C@H]1CC#N (single isomer, unassigned) [Example 35a] here?
medium

Just checking, what class would you give C=CC(=O)N1CCN(c2ncnc3c2CC[C@H](c2c(C)ccc4c2COC4)C3)CC1 (single isomer, unassigned) [Example 9a] here?
low

Just checking, what class would you give CN1CCC[C@H]1COc1nc2c(c(N3CCN(C(=O)/C=C/CF)C(CC#N)C3)n1)CCC(c1cc(O)cc3ccccc13)C2 (mixture of isomers) [Example 62a] here?
high

Just checking, what class would you give C=CC(=O)N1CCN(c2ncnc3c2C[C@H](C)[C@H](c2nc(N)cc(C)c2C(F)(F)F)C3)CC1 (single isomer, unassigned) [Example 1b] here?
low

Just checking, what class would you give C=CC(=O)N1CCN(c2ncnc3c2CC[C@@H](c2c(F)c(N)cc(F)c2C(F)(F)F)C3)CC1 (single isomer, unassigned) [Example 13a] here?
low

Just checking, what class would you give C=C(F)C(=O)N1CCN(c2nc(OC[C@@H]3C[C@@H](F)CN3C)nc3c2C[C@H](C)[C@@H](c2c(F)c(N)cc(C)c2C(F)(F)F)C3)C[C@@H]1CC#N (single isomer, unassigned) [Example 38d] here?
low

* * *

Let's look at some compounds and their measured IC50.
Molecular target: K-Ras G12C (Homo sapiens, UniProt P01116, G12C)
Experiment: K-Ras G12C, SOS1, Raf RBD HTRF assay for inhibition of GTP exchange
Conditions: 18 hours preincubation with K-Ras G12C at room temperature; SOS1-mediated GTP exchange
The figure you give is taken to be in nM; do not add the unit.

// worked examples, IC50 included
C#CC[C@@H]1CN(c2nc(OC[C@@H]3CCCN3C)nc3c2C[C@@H](C)[C@H](c2cccc4c2CCC4)C3)CCN1C(=O)C=C (single isomer, unassigned) [Example 40d] | 29
C=CC(=O)N1CCN(c2nc(OC[C@@H]3COC(=O)N3C)nc3c2CC[C@H](c2cc(O)cc4ccccc24)C3)[C@@H](C)C1 (single isomer, unassigned) [Example 57c] | 53

Please report the measured IC50 for C=CC(=O)N1CCN(c2ncnc3c2CC(C(C)C)C(c2cc(O)cc4ccccc24)C3)CC1 (centres unmarked)
120

* * *

Molecular target: K-Ras G12C (Homo sapiens, UniProt P01116, G12C)
Experiment: K-Ras G12C, SOS1, Raf RBD HTRF assay for inhibition of GTP exchange
Details: 18 hours preincubation with K-Ras G12C at room temperature; SOS1-mediated GTP exchange
pIC50: −log10 of the molar value.
Property label: pIC50

// worked examples, pIC50 included
C=CC(=O)N1CCN(c2nc(OC[C@@H]3C[C@@H](F)CN3C)nc3c2C[C@@H](CC)[C@H](c2c(F)c(N)cc(C)c2C(F)(F)F)C3)[C@@H](C)C1 (single isomer, unassigned) [Example 37a] | > 8.00
C=CC(=O)N1CCN(c2nc(OC[C@@H]3CCCN3C)nc3c2CCC(c2cc(O)cc4ccccc24)C3)[C@@H](CO)C1 (single isomer, unassigned) [Example 29b] | > 8.00
C=CC(=O)N1CCN(c2nc(OC[C@@H]3C[C@@H](F)CN3C)nc3c2C[C@H](C)[C@@H](c2nc(N)cc(C)c2C2CC2)C3)[C@@H](C)C1 (single isomer, unassigned) [Example 24a] | < 4.30
C=CC(=O)N1CCN(c2nc(OCc3cn(C)cn3)nc3c2CCC(c2cc(O)cc4ccccc24)C3)[C@@H](C)C1 (some centres unmarked) [Example 54a] | 6.33

Please report the measured pIC50 for C=CC(=O)N1CCN(c2nc(OC[C@@H]3CCCN3C)nc3c2C[C@@H](C)[C@H](c2cc(O)cc4ccccc24)C3)[C@@H](C)C1 (single isomer, unassigned) [Example 22b]
> 8.00

* * *

Biological target: K-Ras G12C (Homo sapiens, UniProt P01116, G12C)
Assay: K-Ras G12C, SOS1, Raf RBD HTRF assay for inhibition of GTP exchange
Conditions: 18 hours preincubation with K-Ras G12C at room temperature; SOS1-mediated GTP exchange
Property label: IC50

// worked examples, IC50 included
C=CC(=O)N1CCN(c2nc(OC[C@@H]3CCCN3C)nc3c2CCC(c2cc(O)cc4ccccc24)C3)CC1 (stereo partly drawn) [Example 49a] | 23 nM
C=CC(=O)N1CCN(c2nc(OC[C@@H]3CCCN3C)nc3c2C[C@@H](C)[C@H](c2nc(N)cc(C)c2C(F)(F)F)C3)CC1 (single isomer, unassigned) [Example 20a] | < 10 nM
C=CC(=O)N1CCN(c2nc(OC[C@@H]3CCCN3C)nc3c2C[C@@H](C)[C@H](c2cccc4c2CCC4)C3)C[C@@H]1CC#N (single isomer, unassigned) [Example 35d] | < 10 nM

Please report the measured IC50 for CNC/C=C/C(=O)N1CCN(c2ncnc3c2C[C@H](C)[C@@H](c2c(C)ccc4[nH]ncc24)C3)CC1 (single isomer, unassigned) [Example 19b]
> 30000 nM

Please report the measured IC50 for C=CC(=O)N1CCN(c2ncnc3c2CC[C@@H](c2nc(N)cc4ccccc24)C3)CC1 (single isomer, unassigned)
> 50000 nM

Please report the measured IC50 for C=CC(=O)N1CCN(c2nc(OC[C@@H]3CCCN3C)nc3c2C[C@@H](C)[C@H](c2nc(N)ccc2C(F)(F)F)C3)[C@@H](C)C1 (single isomer, unassigned) [Example 41b]
< 10 nM
